IC50 overview
Target: PRMT5/MEP50 complex (Homo sapiens (Human))
Sequence (O14744 whole entry): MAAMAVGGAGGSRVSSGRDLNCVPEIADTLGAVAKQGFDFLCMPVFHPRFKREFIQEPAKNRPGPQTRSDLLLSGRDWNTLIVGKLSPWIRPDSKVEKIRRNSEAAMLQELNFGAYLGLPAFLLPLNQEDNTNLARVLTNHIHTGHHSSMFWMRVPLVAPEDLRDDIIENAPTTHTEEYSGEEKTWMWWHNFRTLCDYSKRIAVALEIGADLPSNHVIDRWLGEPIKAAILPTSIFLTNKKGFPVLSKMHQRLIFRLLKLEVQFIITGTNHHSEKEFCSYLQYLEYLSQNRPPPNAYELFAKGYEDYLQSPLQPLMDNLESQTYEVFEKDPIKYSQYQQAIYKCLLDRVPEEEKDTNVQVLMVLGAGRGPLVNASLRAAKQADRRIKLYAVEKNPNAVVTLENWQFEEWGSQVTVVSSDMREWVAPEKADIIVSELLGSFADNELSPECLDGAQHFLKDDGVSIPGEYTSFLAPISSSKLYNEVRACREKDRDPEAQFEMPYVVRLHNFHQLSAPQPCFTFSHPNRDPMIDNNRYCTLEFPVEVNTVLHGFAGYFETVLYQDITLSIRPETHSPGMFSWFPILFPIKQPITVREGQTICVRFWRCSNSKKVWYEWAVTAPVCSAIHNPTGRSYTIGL
Sequence (Q9BQA1 whole entry partner): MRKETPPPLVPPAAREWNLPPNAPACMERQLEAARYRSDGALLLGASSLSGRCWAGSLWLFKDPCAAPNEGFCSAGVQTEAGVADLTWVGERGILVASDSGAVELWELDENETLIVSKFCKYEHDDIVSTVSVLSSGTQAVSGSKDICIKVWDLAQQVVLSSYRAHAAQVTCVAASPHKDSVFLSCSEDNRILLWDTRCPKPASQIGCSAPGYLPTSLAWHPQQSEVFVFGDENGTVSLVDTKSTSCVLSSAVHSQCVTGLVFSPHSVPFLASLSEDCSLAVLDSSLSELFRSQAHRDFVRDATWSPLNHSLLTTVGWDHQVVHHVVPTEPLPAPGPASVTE
Test: PRMT5:MEP50 FlashPlate Assay
Assay type: biochemical
Conditions: histone H4 peptide, absence of MTA, read-out: IC50
Procedure: The PRMT5 inhibitory activity of compounds of the present invention was determined using a PRMT5:MEP50 FlashPlate Assay (Reaction Biology Corporation). The assay uses purified human, PRMT5 enzyme to convert S-adenosyl-L-[methyl-^3H]methionine plus histone H4 L-arginine to S-adenosyl-L-homocysteine plus histone H4 [methyl-^3H]-L-arginine. […] The reaction was stopped and the amount of bound, tritiated H4 peptide in each sample was determined using a scintillation counter. […]
# value in µM; strip the unit string

(Q) Param item = "CC(=O)N(Cc1cnc2c(C)cc(N)nc2c1)c1ccc2ccccc2c1C#N" ; retrieve measured IC50.
(A) 6.46

New cases:
(Q) Param item = "Cc1cc2[nH]c(CN3C(=O)c4ccccc4C3=O)cc2nc1N" ; retrieve measured IC50.
(A) 10.1

(Q) Another: Cc1cc(N)nc2cc(CNC(=O)c3ccccc3)cnc12 [Example 7-1]
(A) 62.6

(Q) Another: "Cc1cc(N)nc2cc(Oc3cccnc3)cnc12"
(A) 351

---

biological target: recombinant human dual expressed Avi PRMT5/His-MEP50 protein (Homo sapiens (Human), UniProt O14744); test: HTRF binding assay in presence of MTA; details: 30 μM MTA
Sequence (O14744 2-637): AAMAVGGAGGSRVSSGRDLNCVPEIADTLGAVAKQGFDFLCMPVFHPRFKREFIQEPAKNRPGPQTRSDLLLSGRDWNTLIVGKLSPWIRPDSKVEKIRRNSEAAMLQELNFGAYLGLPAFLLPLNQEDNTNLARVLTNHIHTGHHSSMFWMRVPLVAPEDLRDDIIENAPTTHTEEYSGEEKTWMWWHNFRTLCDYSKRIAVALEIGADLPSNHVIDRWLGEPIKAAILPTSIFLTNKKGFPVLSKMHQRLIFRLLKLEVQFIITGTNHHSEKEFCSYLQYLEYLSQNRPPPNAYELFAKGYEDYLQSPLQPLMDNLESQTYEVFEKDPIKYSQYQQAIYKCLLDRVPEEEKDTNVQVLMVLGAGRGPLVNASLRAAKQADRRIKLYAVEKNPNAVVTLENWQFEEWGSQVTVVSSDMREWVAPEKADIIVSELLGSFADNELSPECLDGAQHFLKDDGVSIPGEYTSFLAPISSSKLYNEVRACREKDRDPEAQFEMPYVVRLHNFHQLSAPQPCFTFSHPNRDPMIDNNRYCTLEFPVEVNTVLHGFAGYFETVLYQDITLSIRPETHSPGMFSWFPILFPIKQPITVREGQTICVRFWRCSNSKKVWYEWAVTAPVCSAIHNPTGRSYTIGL
Sequence (Q9BQA1 2-342 partner): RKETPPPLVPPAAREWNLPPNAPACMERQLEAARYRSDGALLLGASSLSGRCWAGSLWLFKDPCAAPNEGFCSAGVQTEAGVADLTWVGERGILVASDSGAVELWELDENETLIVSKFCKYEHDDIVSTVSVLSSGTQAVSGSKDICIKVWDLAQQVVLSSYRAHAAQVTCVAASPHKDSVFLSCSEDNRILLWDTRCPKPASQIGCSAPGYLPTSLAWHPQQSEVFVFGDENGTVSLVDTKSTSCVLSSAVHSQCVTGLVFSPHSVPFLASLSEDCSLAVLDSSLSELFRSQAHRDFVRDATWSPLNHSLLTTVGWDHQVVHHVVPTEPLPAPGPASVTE
pIC50 overview
Scale explanation: pIC50 corresponds to minus log10 of a concentration expressed in moles per litre.

(Q) Param item = Cc1cc(N)nc2cc(C(C#N)N3C(=O)c4ccccc4C3=O)cnc12 (centres unmarked) [Example 7-7] ; retrieve measured pIC50.
(A) 7.62

(Q) Another: Nc1nc2cc[nH]c2cc1C(F)(F)F [Example 9-3]
(A) 4.69

(Q) Another: Cc1cc(N)nc2cc(-c3cccnc3)cnc12 [Example 1-3]
(A) 5.68

(Q) Another: Cc1cc(N)nc2ccc(-c3cncs3)nc12 [Example 4-4]
(A) 4.53

(Q) Another: Cc1cc(N)nc2cc(-c3ccccn3)cnc12 [Example 1-2]
(A) 4.09

---

target: recombinant human dual expressed Avi PRMT5/His-MEP50 protein (Homo sapiens (Human), UniProt O14744); assay: HTRF binding assay in presence of MTA; conditions: 30 μM MTA
pIC50: −log10 of the molar value.
Label no (0) if pIC50 falls below 5; label yes (1) in every other case.

Worked cases, answers included:
(Q) Check this compound for pIC50 at or above 5: Nc1nc2cc(NC(=O)c3ccccc3)[nH]c2cc1Br [Example 12-1]
(A) yes (1)

(Q) Another: Cc1cc(N)nc2cc(Oc3cccnc3)cnc12 [Example 3-7]
(A) yes (1)

(Q) Another: Cc1cc2[nH]c(N3CCN(C)C3=O)cc2nc1N [Example 13-5]
(A) no (0)

(Q) Another: C#Cc1c(CNC(=O)c2ccccc2)[nH]c2cc(C)c(N)nc12 [Example 15-4]
(A) no (0)

(Q) Another: Cc1cc(N)nc2cc(-c3cncs3)cnc12 [Example 1-6]
(A) no (0)

New cases:
(Q) Check this compound for pIC50 at or above 5: Cc1cc(N)nc2ccc(NC3CCC3)nc12 [Example 5-3]
(A) no (0)

(Q) Another: Cc1cc2[nH]c(C(C#N)N3C(=O)c4ccccc4C3=O)cc2nc1N (stereo not shown) [Example 14-5]
(A) yes (1)

(Q) Another: Cc1cc(N)nc2cc(Cc3ccccc3C#N)cnc12 [Example 2-4]
(A) yes (1)

(Q) Another: Cc1cc2c(cc(CNC(=O)c3ccccc3)n2C2CC2)nc1N [Example 15-1]
(A) yes (1)
